Please respond with reported IC50 for every item in the list.
Tested on: HeLa
experimental details: Anti-cancer activity against human HeLa cells assessed as reduction in cell viability after 72 hrs by WST-1 assay
Type: functional, cell-based
# number only, unit µM dropped from output

Request body: readout IC50, system HeLa, query "COC(=O)/C=C/c1ccc(NCc2cc(Cl)cc(Cl)c2O)cc1" . Return the value.
25.9

Same thing, different molecule: "COC(=O)/C=C/c1ccc(NCc2cccc(OC)c2O)cc1"
3.04

Next molecule up: "COC(=O)/C=C/c1ccc(NCc2cc(Br)cc(Br)c2O)cc1"
35.4

Another molecule to look at: "COC(=O)/C=C/c1ccc(NCc2cc([N+](=O)[O-])ccc2O)cc1"
16

Next record, please: "COC(=O)/C=C/c1ccc(NCc2cccc(O)c2O)cc1"
68.2

Now give it for "COC(=O)/C=C/c1ccc(NCc2cc(Cl)ccc2O)cc1" too.
8.56
